- RUN_DESCRIPTION: AUC (0 to infinity) in ICR mouse at 20 mg/kg, ip up to 24 hrs by LC-MS/MS analysis
- Format: ADME, organism-based
- Set-up: route intraperitoneal, dose 20 mg/kg, time <=24
- PROTOCOL_CONDITIONS: in vivo
MEASUREMENT_KIND: AUC(0-inf) (ng·h/mL)
# output: bare number, implied unit ng·h/mL

Enquiry: Which AUC(0-inf) value is on record for "Nc1ccccc1NC(=O)c1ccc(CCn2ncc3c2nc(N)n2nc(-c4ccco4)nc32)cc1" ?
Return: 6630

* * *

- TESTED_SYSTEM: Histone deacetylase 2 (Homo sapiens, UniProt Q92769)
- Sequence (Q92769 whole entry): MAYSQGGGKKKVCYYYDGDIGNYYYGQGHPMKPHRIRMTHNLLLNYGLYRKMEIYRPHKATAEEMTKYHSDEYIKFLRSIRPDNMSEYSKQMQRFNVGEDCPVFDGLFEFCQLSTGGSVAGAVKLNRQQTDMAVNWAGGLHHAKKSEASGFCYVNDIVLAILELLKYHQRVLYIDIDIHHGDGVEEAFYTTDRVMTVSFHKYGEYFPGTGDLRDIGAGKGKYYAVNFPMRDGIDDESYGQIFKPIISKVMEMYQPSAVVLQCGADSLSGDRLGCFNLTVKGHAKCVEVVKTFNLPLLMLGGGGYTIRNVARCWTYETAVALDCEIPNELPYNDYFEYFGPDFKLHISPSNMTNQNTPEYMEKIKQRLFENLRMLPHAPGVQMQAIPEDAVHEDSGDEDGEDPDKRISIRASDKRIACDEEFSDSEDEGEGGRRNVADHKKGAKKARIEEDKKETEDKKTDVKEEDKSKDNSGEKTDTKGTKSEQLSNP
MEASUREMENT_KIND: IC50 (µM)
# output: bare number, implied unit µM

Enquiry: Which IC50 value is on record for "Nc1ccccc1NC(=O)c1ccc(CCn2ncc3c2nc(N)n2nc(-c4ccco4)nc32)cc1" ?
Return: 0.179
